- ASSAY NAME: Growth inhibition of human FR2 cells assessed as dead cells at 50 uM after 48 hrs by sulforhodamine-B assay relative to control
- Format: cell-based
- COND: read-out: GI
OUTCOME MEASURE: inhibition at 48 h, 50 µM (%)
One number for each entry, in %.

C[C@H]1[C@H](C)CC[C@]2(C(=O)OCc3cn(-c4ccc(Br)cc4)nn3)CC[C@]3(C)C(=CC[C@@H]4[C@@]5(C)CCC(=O)C(C)(C)[C@@H]5CC[C@]43C)[C@H]12 | 93
C[C@H]1[C@H](C)CC[C@]2(C(=O)O)CC[C@]3(C)C(=CC[C@@H]4[C@@]5(C)CC[C@H](O)C(C)(C)[C@@H]5CC[C@]43C)[C@H]12 | 66
C[C@H]1[C@H](C)CC[C@]2(C(=O)OCc3cn(-c4ccccc4)nn3)CC[C@]3(C)C(=CC[C@@H]4[C@@]5(C)CCC(=O)C(C)(C)[C@@H]5CC[C@]43C)[C@H]12 | 45

Would you mind listing inhibition at 48 h, 50 µM for each of the following molecules?
1. C[C@H]1[C@H](C)CC[C@]2(C(=O)OCc3cn(-c4ccccc4Br)nn3)CC[C@]3(C)C(=CC[C@@H]4[C@@]5(C)CCC(=O)C(C)(C)[C@@H]5CC[C@]43C)[C@H]12
2. C#CCOC(=O)[C@]12CC[C@@H](C)[C@H](C)[C@H]1C1=CC[C@@H]3[C@@]4(C)CCC(=O)C(C)(C)[C@@H]4CC[C@@]3(C)[C@]1(C)CC2

Ans:
1: 99; 2: 86
